B1: TRIM35 (parent)
chain: DKELLCCSCQADPRHQGHRVQPVK

Variants of: B1
Assay: protein stability index of a GFP-peptide fusion (GPS, HEK-293T) (PSI 1-6); higher = more stable;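 note: lentivirally expressed fusions sorted by FACS into six bins by GFP to DsRed ratio, PSI derived from sequencing read proportions per bin multiplied by bin number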
Settings: c terminus: a fixed tail appended
Measured Parameter: protein stability index
Output: the number by itself.

Dear colleague, I am looking for the recorded protein stability index of the following variant: H15Q
3.02

Reported protein stability index, variant Q21C : ____
3.92

Any idea what protein stability index was measured for R19L ?
3.52

# protein stability index lookup, item D12W
3.48

// protein stability index lookup, key: K2Y
3.2

protein stability index for R19A ?
3.62

Looking for the measured protein stability index of Q16D , can you help?
3.98

Recorded protein stability index of Q10W , please.
2.53

Data request, read-out protein stability index, for V20N
4.13

What protein stability index value was documented for this variant, L5Y ?
2.93

Reported protein stability index, variant Q21G : ____
3.28
